# System: Human immunodeficiency virus 1
# method_summary: Inhibition of recombinant HIV1 protease at 100 ug/ml
measurement_type: inhibition (%)

> print(dat)
     substance  measurement.type  uom  value.measured
1  H-LLEYVW-OH        inhibition    %            64.9
2  H-LLEYVF-OH        inhibition    %            52.3
3  H-LLEYVY-OH        inhibition    %            58.6
4  H-LLEYVM-OH        inhibition    %            47.2
